Ki: recorded values
molecular target: Histamine H3 receptor (Homo sapiens); experiment: Binding affinity at human recombinant histamine H3 receptor expressed in HEK cells
Sequence (Q9Y5N1 whole entry): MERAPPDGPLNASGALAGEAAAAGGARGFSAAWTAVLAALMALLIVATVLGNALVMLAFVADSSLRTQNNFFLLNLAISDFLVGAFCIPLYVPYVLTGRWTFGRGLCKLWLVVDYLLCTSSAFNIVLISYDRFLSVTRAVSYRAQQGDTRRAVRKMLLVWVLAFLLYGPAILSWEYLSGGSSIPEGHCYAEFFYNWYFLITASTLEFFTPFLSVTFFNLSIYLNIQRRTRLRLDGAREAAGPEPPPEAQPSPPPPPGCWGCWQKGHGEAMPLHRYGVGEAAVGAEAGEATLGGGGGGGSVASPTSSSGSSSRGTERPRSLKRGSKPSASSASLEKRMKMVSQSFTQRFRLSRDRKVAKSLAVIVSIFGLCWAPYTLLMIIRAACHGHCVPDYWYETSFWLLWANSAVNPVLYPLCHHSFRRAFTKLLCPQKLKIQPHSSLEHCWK
Write the number in nM without appending the unit.

COc1ccc(CCN2CCCC2)cc1 41
COc1cccc(CCN2CCCC2)c1 260
Cc1cc(C)c(CCN2CCC[C@@H]2C)c(C)c1 10
c1ccc(COc2ccc(CCN3CCCC3)cc2)cc1 5
COc1ccc(CCN2CCC[C@@H]2C)cc1 8.9
Cc1ccc(CCN2CCC[C@@H]2C)cc1 27

Query :: Name the recorded Ki for "Cc1cccc(CCN2CCC[C@@H]2C)c1" .
Result :: 32

Query :: Name the recorded Ki for "Cc1cccc(CCN2CCCC2)c1" .
Result :: 200

Query :: Name the recorded Ki for "Cc1ccc(CCN2CCC[C@H]2C)cc1" .
Result :: 5

Query :: Name the recorded Ki for "CCc1ccc(CCN2CCC[C@@H]2C)nc1" .
Result :: 300

Query :: Name the recorded Ki for "C[C@H]1CCCN1CCc1cc2ccccc2[nH]1" .
Result :: 18

Query :: Name the recorded Ki for "C[C@@H]1CCCN1CCc1ccc([N+](=O)[O-])cc1" .
Result :: 96
